target: Carbonic anhydrase 4 (Bos taurus)
Sequence (Q95323 whole entry): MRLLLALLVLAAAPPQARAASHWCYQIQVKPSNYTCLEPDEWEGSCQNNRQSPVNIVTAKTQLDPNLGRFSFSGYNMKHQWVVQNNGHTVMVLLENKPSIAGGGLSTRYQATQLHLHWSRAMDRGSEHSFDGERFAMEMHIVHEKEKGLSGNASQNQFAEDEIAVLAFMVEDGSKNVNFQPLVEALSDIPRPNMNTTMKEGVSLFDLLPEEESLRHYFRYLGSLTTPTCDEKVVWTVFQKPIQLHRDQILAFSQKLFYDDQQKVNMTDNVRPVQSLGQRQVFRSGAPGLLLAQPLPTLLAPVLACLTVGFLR
pKi: −log10 of the molar value.

>  <Smiles Entry>
Cc1c2cc(c(C)[n+]1-c1ccc(S(=O)(=O)Nc3nnc(S(N)(=O)=O)s3)cc1)CCCCCCCCC2.[O-][Cl+3]([O-])([O-])[O-]

>  <Assay Target>
Carbonic anhydrase 4 (Bos taurus)

>  <pKi>
8.34

$$$$
